System: NIH3T3
Experiment: Cytotoxicity against mouse NIH/3T3 cells after 96 hrs by SRB assay
Format: cell-based
Settings: NIH3T3, 96 h
readout_label: EC50 (µM)
Numbers only, in µM.

Example entries and their recorded answers appear below.
CCN(CC)c1ccc2c(-c3ccccc3C(=O)O[C@@H]3CC[C@@]4(C)[C@@H](CC[C@]5(C)[C@@H]4C(=O)C=C4[C@@H]6[C@@H](C)[C@H](C)CC[C@]6(C)CC[C@]45C)[C@@]3(C)C(=O)OC)c3ccc(=[N+](CC)CC)cc-3oc2c1 0.19
CC(=O)O[C@@H]1CC[C@@]2(C)[C@@H](CC[C@]3(C)[C@@H]2C(=O)C=C2[C@@H]4[C@@H](C)[C@H](C)CC[C@]4(C)CC[C@]23C)[C@@]1(C)C(=O)N1CCCNCC1 0.9
CCN(CC)c1ccc2c(-c3ccccc3C(=O)O[C@H]3CC[C@@]4(C)[C@@H](CC[C@]5(C)[C@@H]4C(=O)C=C4[C@@H]6[C@@H](C)[C@H](C)CC[C@]6(C)CC[C@]45C)[C@@]3(C)C(=O)NCc3ccccc3)c3ccc(=[N+](CC)CC)cc-3oc2c1 0.4
CCN(CC)c1ccc2c(-c3ccccc3C(=O)N3CCCN(C(=O)[C@]45CC[C@@H](C)[C@H](C)[C@H]4C4=CC[C@@H]6[C@@]7(C)CC[C@H](OC(C)=O)C(C)(C)[C@@H]7CC[C@@]6(C)[C@]4(C)CC5)CC3)c3ccc(=[N+](CC)CC)cc-3oc2c1 0.14
C=C(C)[C@@H]1CC[C@]2(C(=O)N3CCCNCC3)CC[C@]3(C)[C@H](CC[C@@H]4[C@@]5(C)CC[C@H](OC(C)=O)C(C)(C)[C@@H]5CC[C@]43C)[C@@H]12 1.05

Batch: EC50 for all items listed.
1. CC(=O)O[C@H]1CC[C@]2(C)[C@H]3CC=C4[C@@H]5[C@@H](C)[C@H](C)CC[C@]5(C(=O)N5CCCNCC5)CC[C@@]4(C)[C@]3(C)CC[C@H]2C1(C)C
2. CC(=O)O[C@@H]1CC[C@@]2(C)[C@@H](CC[C@]3(C)[C@@H]2C(=O)C=C2[C@@H]4[C@@H](C)[C@H](C)CC[C@]4(C)CC[C@]23C)[C@@]1(C)C(=O)NCc1ccccc1
3. CCN(CC)c1ccc2c(-c3ccccc3C(=O)O[C@H]3CC[C@@]4(C)[C@@H](CC[C@]5(C)[C@@H]4C(=O)C=C4[C@@H]6[C@@H](C)[C@H](C)CC[C@]6(C)CC[C@]45C)[C@@]3(C)C(=O)OCc3ccccc3)c3ccc(=[N+](CC)CC)cc-3oc2c1

Output line:
1: 1.81; 2: 28.1; 3: 1.01

====

Test system: NIH3T3
Assay: Cytotoxicity against mouse NIH/3T3 cells after 96 hrs by SRB assay
Format: cell-based
Details: NIH3T3, 96 h
readout_label: pEC50
Give bare numbers, as −log10 of the molar value.

CCN(CC)c1ccc2c(-c3ccccc3C(=O)N3CCCN(C(=O)[C@@]4(C)CC[C@]5(C)CC[C@]6(C)C(=CC(=O)[C@@H]7[C@@]8(C)CC[C@H](OC(C)=O)C(C)(C)[C@@H]8CC[C@]76C)[C@@H]5C4)CC3)c3ccc(=[N+](CC)CC)cc-3oc2c1 6.48
CCN(CC)c1ccc2c(-c3ccccc3C(=O)N3CCCN(C(=O)[C@]45CCC(C)(C)C[C@H]4C4=CC[C@@H]6[C@@]7(C)CC[C@H](OC(C)=O)C(C)(C)[C@@H]7CC[C@@]6(C)[C@]4(C)CC5)CC3)c3ccc(=[N+](CC)CC)cc-3oc2c1.[Cl-] 6.77

Input line: Could you please provide reported pEC50 for `CC(=O)O[C@H]1CC[C@]2(C)[C@H]3C(=O)C=C4[C@@H]5C[C@@](C)(C(=O)N6CCCNCC6)CC[C@]5(C)CC[C@@]4(C)[C@]3(C)CC[C@H]2C1(C)C` ? Thanks!
Output line: 4.91

Every entry's value here was drawn from ChEMBL document CHEMBL4152327.
